System: SenzaCell
EXPERIMENT_DESCRIPTION: GARDair assay: gene expression signature (GRPS, 28 genes) of chemically exposed DC-like cells, SVM classification
SETUP_CONDITIONS: finalized GARDair prediction model; RS if mean SVM decision value (n=3) > 0; 24 h exposure at GARD input concentration
MEASUREMENT_TYPE: Prediction Test set 1

// below: answered compounds
Please look up its Prediction Test set 1: O=[N+]([O-])c1ccc(Cl)c([N+](=O)[O-])c1
NRS

Please look up its Prediction Test set 1: C=CCc1ccc(O)c(OC)c1
NRS

Please look up its Prediction Test set 1: OCC(O)CO
NRS

Please look up its Prediction Test set 1: CCCCCCCC(=O)O
NRS

Others:
Please look up its Prediction Test set 1: O=Cc1ccccc1
NRS
